# Test system: MRSA isolates
# test.summary: MIC/MBC, CLSI broth microdilution, MRSA isolates
# Assay type: cell-based, Staphylococcus aureus
# measurement.context: Staphylococcus aureus, MRSA, pH 6.5, MRSA 0608, pH 6.5
Listed here: items and their measured MBC.
The response must be a number in µg/mL with no trailing unit.

Completed entries (count: 4):
* [Li+].[Li+].[O-]c1c(Cl)cc(Cl)cc1-c1cc(Cl)cc(Cl)c1[O-] [C59Li] | 2
* CN[C@H](CC(C)C)C(=O)N[C@H]1C(=O)N[C@@H](CC(N)=O)C(=O)N[C@H]2C(=O)N[C@H]3C(=O)N[C@H](C(=O)N[C@H](C(=O)O)c4cc(O)cc(O)c4-c4cc3ccc4O)[C@H](O)c3ccc(c(Cl)c3)Oc3cc2cc(c3O[C@@H]2O[C@H](CO)[C@@H](O)[C@H](O)[C@H]2O[C@H]2C[C@](C)(N)[C@H](O)[C@H](C)O2)Oc2ccc(cc2Cl)[C@H]1O [Vancomycin, vancomycin, reference compound] | 2
* Oc1c(Cl)cc(Cl)cc1-c1cc(Cl)cc(Cl)c1O | 2
* [Na+].[Na+].[O-]c1c(Cl)cc(Cl)cc1-c1cc(Cl)cc(Cl)c1[O-] [C59Na] | 1

Then this compound:
Given item Oc1c(Br)cc(Br)cc1-c1cc(Br)cc(Br)c1O , the value recorded as its MBC is 2
